B1: TPR 5TU (parent)
chain: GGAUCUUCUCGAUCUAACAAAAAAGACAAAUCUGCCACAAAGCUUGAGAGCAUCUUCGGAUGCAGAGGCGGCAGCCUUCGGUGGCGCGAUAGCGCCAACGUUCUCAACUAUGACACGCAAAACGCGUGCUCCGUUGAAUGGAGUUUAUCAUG

- Variants of: B1
- ASSAY_REMARKS: polymerase ribozyme fitness, log enrichment relative to wild type (log ratio); higher = more active; in vitro selection for triplet polymerase activity
Variants at the floor of the assay were thinned out.
The following variants are listed with their measured polymerase ribozyme fitness (log ratio) values.

A41C G67C G68A G88C G92A A107C : ≤ -4.2
C8G A30G C35U G65U G94U U135C U144G : ≤ -4.2
C5G U7A U33G A91G C93U C118G A122G U144G : ≤ -4.2

Kindly consider the entry below.
Task: Would you kindly share the measured polymerase ribozyme fitness (log ratio) for C32U G46A A60U G83C C96A G141A ?
Result: ≤ -4.2
